SUBJECT_OF_TEST: UniProtKB Q9Y6L6
ASSAY_DETAILS: Drug uptake ratio assessed as enzyme-mediated uptake in HEK293 cells expressing human OATP1B1 at 10 uM at 37 degC for 3 mins by liquid scintillation spectroscopy relative to wild type
Format: ADME, cell-based
REPORTED_ENDPOINT: uptake ratio at 0.05 h, 10 µM

# example entries with known answers
Just so you know, measured uptake ratio at 0.05 h, 10 µM for CC(C)c1nc(N(C)S(C)(=O)=O)nc(-c2ccc(F)cc2)c1/C=C/[C@@H](O)C[C@@H](O)CC(=O)O came out at 1.9

Recorded result, C[C@]12CC[C@@H]3c4ccc(OS(=O)(=O)O)cc4CC[C@H]3[C@@H]1CCC2=O , uptake ratio at 0.05 h, 10 µM: 2.2

// moving on: another record for uptake ratio at 0.05 h, 10 µM
Form field uptake ratio at 0.05 h, 10 µM, entry Cc1ncc2n1-c1ccc(Cl)cc1C(c1ccccc1F)=NC2 : 0.92

###

SUBJECT_OF_TEST: OATP1B1 (Homo sapiens, UniProt Q9Y6L6)
Sequence (Q9Y6L6 whole entry): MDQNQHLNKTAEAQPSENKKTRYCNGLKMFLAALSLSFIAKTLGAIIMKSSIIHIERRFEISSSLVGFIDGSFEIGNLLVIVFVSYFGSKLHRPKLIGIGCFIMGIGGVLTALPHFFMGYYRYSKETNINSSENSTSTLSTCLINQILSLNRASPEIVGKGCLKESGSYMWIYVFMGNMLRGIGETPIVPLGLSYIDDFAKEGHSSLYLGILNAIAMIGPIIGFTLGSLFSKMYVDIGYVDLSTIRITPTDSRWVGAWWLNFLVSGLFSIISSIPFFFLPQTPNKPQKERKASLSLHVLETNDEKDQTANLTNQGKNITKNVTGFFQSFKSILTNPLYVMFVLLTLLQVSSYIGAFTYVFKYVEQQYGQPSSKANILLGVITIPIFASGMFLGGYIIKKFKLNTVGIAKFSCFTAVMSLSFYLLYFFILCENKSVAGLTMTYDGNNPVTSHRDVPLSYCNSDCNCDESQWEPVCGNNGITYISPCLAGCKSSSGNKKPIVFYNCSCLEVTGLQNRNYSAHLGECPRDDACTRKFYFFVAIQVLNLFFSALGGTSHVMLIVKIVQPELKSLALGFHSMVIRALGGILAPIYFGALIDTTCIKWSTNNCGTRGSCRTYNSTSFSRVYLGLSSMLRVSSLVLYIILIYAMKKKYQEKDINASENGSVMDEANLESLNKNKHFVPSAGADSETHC
ASSAY_DETAILS: Drug uptake ratio assessed as enzyme-mediated uptake in HEK293 cells expressing human OATP1B1 at 1 uM at 37 degC for 3 mins by liquid scintillation spectroscopy relative to wild type
Type: ADME, cell-based
# uptake ratio at 0.05 h, 1 µM per record follows
Please respond with just the number, no unit label.

Look over these answered cases.
Per the record, CC(C)c1nc(N(C)S(C)(=O)=O)nc(-c2ccc(F)cc2)c1/C=C/[C@@H](O)C[C@@H](O)CC(=O)O has uptake ratio at 0.05 h, 1 µM of 3.4

According to the records, this compound Cc1ncc2n1-c1ccc(Cl)cc1C(c1ccccc1F)=NC2 displays uptake ratio at 0.05 h, 1 µM of 0.92

Turning to the following compound.
Sample C[C@]12CC[C@@H]3c4ccc(OS(=O)(=O)O)cc4CC[C@H]3[C@@H]1CCC2=O ; uptake ratio at 0.05 h, 1 µM observed: 6.7
